Test system: LNCaP tumor-bearing mice
Experiment: Differential uptake and excretion pattern of isomers after injection of the diastereomeric mixture (radio-HPLC)
Format: in vivo
Details: blood, liver, kidney and tumor, 30 min p.i., n = 4
OUTCOME MEASURE: Abundance (enrichment) of the isomer in tissue compared to time point of injection

COMPOUND: CC(C)(C)[Si]([18F])(c1ccc(C(=O)NC[C@@H](NC(=O)CC[C@@H](C(=O)O)N2CCN(CC(=O)[O-])CCN(CC(=O)[O-])CCN(CC(=O)[O-])CC2)C(=O)N[C@H](CCCCNC(=O)CCC(=O)NCCC[C@@H](NC(=O)CC[C@H](NC(=O)N[C@@H](CCC(=O)O)C(=O)O)C(=O)O)C(=O)O)C(=O)O)cc1)C(C)(C)C.[Ga+3] [[^18F, ^natGa]rhPSMA-7.3]
TEST TARGET: LNCaP tumor-bearing mice
RECORDED RESULT: higher
//
COMPOUND: CC(C)(C)[Si]([18F])(c1ccc(C(=O)NC[C@@H](NC(=O)CC[C@H](C(=O)O)N2CCN(CC(=O)[O-])CCN(CC(=O)[O-])CCN(CC(=O)[O-])CC2)C(=O)N[C@H](CCCCNC(=O)CCC(=O)NCCC[C@@H](NC(=O)CC[C@H](NC(=O)N[C@@H](CCC(=O)O)C(=O)O)C(=O)O)C(=O)O)C(=O)O)cc1)C(C)(C)C.[Ga+3] [[^18F, ^natGa]rhPSMA-7.1]
TEST TARGET: LNCaP tumor-bearing mice
RECORDED RESULT: higher
